Experiment: Inhibitory activity against Platelet-derived growth factor receptor kinase

{"chemical smiles": "c1ccc(-c2cnc3cc4ccccc4cc3n2)cc1", "IC50, µM": 0.9}

* * *

Biological target: RAC-alpha serine/threonine-protein kinase (Homo sapiens)
Test: In vitro percent inhibition of Protein kinase B, alpha at 10 uM concentration of compound dissolved in 100% DMSO using 5''-[gamma-33P]-triphosphate
Each item that follows carries a reported inhibition.

{"compound": "O=C(O)C1COc2cc3nc(-c4cccs4)c(-c4cccs4)nc3cc2O1 (centres undefined)", "inhibition (%)": 4}
{"compound": "c1csc(-c2nc3cc4ccccc4cc3nc2-c2cccs2)c1", "inhibition (%)": 12}
{"compound": "Oc1cc2nc(-c3cccs3)c(-c3cccs3)nc2cc1O", "inhibition (%)": -7}
{"compound": "O=C(O)CCc1ccc(-c2nc3cc4ccccc4cc3nc2-c2ccc(CCC(=O)O)s2)s1", "inhibition (%)": 0}

* * *

Assay: In vitro percent inhibition of Cyclin-dependent kinase 2-cyclin A at 10 uM concentration of compound dissolved in 100% DMSO using 5''-[gamma-33P]-triphosphate

{"compound": "c1csc(-c2nc3cc4c(cc3nc2-c2cccs2)OCCO4)c1", "reading unit": "%", "inhibition": 1}
{"compound": "O=C(O)CCc1ccc(-c2nc3cc4ccccc4cc3nc2-c2ccc(CCC(=O)O)s2)s1", "reading unit": "%", "inhibition": -4}
{"compound": "c1csc(-c2nc3cc4c(cc3nc2-c2cccs2)OCCCO4)c1", "reading unit": "%", "inhibition": -7}
{"compound": "c1csc(-c2nc3cc4c(cc3nc2-c2cccs2)OCO4)c1", "reading unit": "%", "inhibition": -4}
{"compound": "O=C(O)CCCc1ccc(-c2nc3cc4ccccc4cc3nc2-c2ccc(CCCC(=O)O)s2)s1", "reading unit": "%", "inhibition": 7}
{"compound": "O=C(O)C1COc2cc3nc(-c4cccs4)c(-c4cccs4)nc3cc2O1 (stereo not given)", "reading unit": "%", "inhibition": 10}
{"compound": "O=C(O)Cc1ccc(-c2nc3cc4ccccc4cc3nc2-c2ccc(CC(=O)O)s2)s1", "reading unit": "%", "inhibition": 8}
{"compound": "COC(=O)CCc1ccc(-c2nc3cc4ccccc4cc3nc2-c2ccc(CCC(=O)OC)s2)s1", "reading unit": "%", "inhibition": 12}
{"compound": "COC(=O)CCCc1ccc(-c2nc3cc4ccccc4cc3nc2-c2ccc(CCCC(=O)OC)s2)s1", "reading unit": "%", "inhibition": 25}
{"compound": "c1csc(-c2nc3cc4ccccc4cc3nc2-c2cccs2)c1", "reading unit": "%", "inhibition": 3}

* * *

Assay: In vitro percent inhibition of Ribosomal S6 kinase 1 at 10 uM concentration of compound dissolved in 100% DMSO using 5''-[gamma-33P]-triphosphate

{"chemical smiles": "c1csc(-c2nc3cc4c(cc3nc2-c2cccs2)OCCCO4)c1", "reading unit": "%", "inhibition": 17}
{"chemical smiles": "COc1cc2nc3nc(-c4cccs4)c(-c4cccs4)nc3nc2cc1OC", "reading unit": "%", "inhibition": 48}
{"chemical smiles": "COC(=O)CCc1ccc(-c2nc3cc4ccccc4cc3nc2-c2ccc(CCC(=O)OC)s2)s1", "reading unit": "%", "inhibition": 31}
{"chemical smiles": "O=C(O)Cc1ccc(-c2nc3cc4ccccc4cc3nc2-c2ccc(CC(=O)O)s2)s1", "reading unit": "%", "inhibition": 23}
{"chemical smiles": "Oc1cc2nc(-c3cccs3)c(-c3cccs3)nc2cc1O", "reading unit": "%", "inhibition": 6}
